target: Histamine H3 receptor (Homo sapiens, UniProt Q9Y5N1); assay: Binding affinity to human histamine H3 receptor
Sequence (Q9Y5N1 whole entry): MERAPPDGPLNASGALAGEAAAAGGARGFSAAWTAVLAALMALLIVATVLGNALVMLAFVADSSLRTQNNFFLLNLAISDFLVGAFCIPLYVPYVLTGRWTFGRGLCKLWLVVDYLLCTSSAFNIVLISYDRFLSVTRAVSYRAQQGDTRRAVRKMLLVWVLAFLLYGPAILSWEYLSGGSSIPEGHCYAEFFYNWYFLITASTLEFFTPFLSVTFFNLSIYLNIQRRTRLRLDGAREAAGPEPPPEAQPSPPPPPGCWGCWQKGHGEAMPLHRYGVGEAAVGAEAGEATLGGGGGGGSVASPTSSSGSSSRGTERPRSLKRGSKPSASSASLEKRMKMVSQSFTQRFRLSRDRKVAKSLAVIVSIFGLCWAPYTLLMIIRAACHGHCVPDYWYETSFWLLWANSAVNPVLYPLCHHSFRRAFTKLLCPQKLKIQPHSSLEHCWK
pKi: −log10 of the molar value.
Tick label 1 if pKi is 7 or greater. Tick label 0 if pKi is less than 7.

| compound | answer-label |
| --- | --- |
| CCNCCCOc1ccc2c(c1)CN(C)CC2c1ccc(OC)cc1 (stereo unspecified) | label 1 |
| COc1ccc(C2CN(C)Cc3cc(OCCCN4CCN(c5ccc(C(F)(F)F)cc5)CC4)ccc32)cc1 (stereo unspecified) | label 0 |
| COc1ccc(C2CN(C)Cc3cc(OCCCN4CCN(c5nccs5)CC4)ccc32)cc1 (stereo unspecified) | label 0 |
| COc1ccc(C2CN(C)Cc3cc(OCCCN4CCN(c5ccncc5)CC4)ccc32)cc1 (stereo unspecified) | label 1 |
| COc1ccc(C2CN(C)Cc3cc(OCCCN(C4CC4)C4CC4)ccc32)cc1 (stereo unspecified) | label 1 |
| COc1ccc(C2CN(C)Cc3cc(OCCCN4CCC(F)(F)CC4)ccc32)cc1 (stereo unspecified) | label 1 |
